Target: pig liver glycolate oxidase (Sus scrofa)
Sequence (I3LVF1 1-370): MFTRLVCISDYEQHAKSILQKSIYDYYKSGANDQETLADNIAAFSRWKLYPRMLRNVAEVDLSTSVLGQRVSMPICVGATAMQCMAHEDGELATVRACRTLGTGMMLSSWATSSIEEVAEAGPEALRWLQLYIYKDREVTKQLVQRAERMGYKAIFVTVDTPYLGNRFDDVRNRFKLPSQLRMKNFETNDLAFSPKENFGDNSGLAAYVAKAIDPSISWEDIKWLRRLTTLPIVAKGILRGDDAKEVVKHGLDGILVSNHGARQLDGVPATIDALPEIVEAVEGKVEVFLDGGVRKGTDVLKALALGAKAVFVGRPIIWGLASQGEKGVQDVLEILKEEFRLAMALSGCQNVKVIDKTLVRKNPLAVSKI
quantity.name: pIC50
Answers are plain numbers, as −log10 of the molar value.

The molecule listed as O=C1NS(=O)(=O)C(c2ccccc2)=C1O has a reported pIC50 of 5.68
